experiment: activity coefficient (dimensionless); of the first substance listed, at infinite dilution; xn = mol fraction of the nth substance listed; conditions: 348.15 K; 101.33 kPa; Liquid; Chromatography; x1 = 0
observationType: activity coefficient
// return a plain number; no unit text

Form field: reported activity coefficient of CCC[N+](=O)[O-] [1-nitropropane] + CCCCCCCCCCCCn1cc[n+](C)c1.O=S(=O)([N-]S(=O)(=O)C(F)(F)F)C(F)(F)F
0.609

Form field: reported activity coefficient of C1CCCCC1 [cyclohexane] + CCCCCCCCCCCCn1cc[n+](C)c1.O=S(=O)([N-]S(=O)(=O)C(F)(F)F)C(F)(F)F
2.18

Form field: reported activity coefficient of O [water] + CCCCCCCCCCCCn1cc[n+](C)c1.O=S(=O)([N-]S(=O)(=O)C(F)(F)F)C(F)(F)F
3.31

Form field: reported activity coefficient of CCC(C)O (centres undefined) [butan-2-ol] + CCCCCCCCCCCCn1cc[n+](C)c1.O=S(=O)([N-]S(=O)(=O)C(F)(F)F)C(F)(F)F
1.13

----------
I'd appreciate it if you could supply activity coefficient values for the items below.
experiment: activity coefficient (dimensionless); of the first substance listed, at infinite dilution; xn = mol fraction of the nth substance listed; conditions: 348.15 K; 101.33 kPa; Liquid; Chromatography; x1 = 0
// return a plain number; no unit text

Form field: reported activity coefficient of C=CCCCCCCCC [1-decene] + CCCCCCCCCCCCn1cc[n+](C)c1.O=S(=O)([N-]S(=O)(=O)C(F)(F)F)C(F)(F)F
4.44

Form field: reported activity coefficient of CCCO [propan-1-ol] + CCCCCCCCCCCCn1cc[n+](C)c1.O=S(=O)([N-]S(=O)(=O)C(F)(F)F)C(F)(F)F
1.22

Form field: reported activity coefficient of C#CCCCCCC [1-octyne] + CCCCCCCCCCCCn1cc[n+](C)c1.O=S(=O)([N-]S(=O)(=O)C(F)(F)F)C(F)(F)F
1.93

Form field: reported activity coefficient of c1ccsc1 [thiophene] + CCCCCCCCCCCCn1cc[n+](C)c1.O=S(=O)([N-]S(=O)(=O)C(F)(F)F)C(F)(F)F
0.62

----------
assay: activity coefficient (dimensionless); of the first substance listed, at infinite dilution; xn = mol fraction of the nth substance listed; conditions: 318.15 K; 101.33 kPa; Liquid; Chromatography; x1 = 0
I'd appreciate it if you could supply activity coefficient values for the items below.
// return a plain number; no unit text

Form field: reported activity coefficient of Cc1ccccc1 [toluene] + CCCCCCCCCCCCn1cc[n+](C)c1.O=S(=O)([N-]S(=O)(=O)C(F)(F)F)C(F)(F)F
0.699

Form field: reported activity coefficient of C1CCCCC1 [cyclohexane] + CCCCCCCCCCCCn1cc[n+](C)c1.O=S(=O)([N-]S(=O)(=O)C(F)(F)F)C(F)(F)F
2.14

Form field: reported activity coefficient of C1CCCC1 [cyclopentane] + CCCCCCCCCCCCn1cc[n+](C)c1.O=S(=O)([N-]S(=O)(=O)C(F)(F)F)C(F)(F)F
1.75

Form field: reported activity coefficient of C1CCOC1 [tetrahydrofuran] + CCCCCCCCCCCCn1cc[n+](C)c1.O=S(=O)([N-]S(=O)(=O)C(F)(F)F)C(F)(F)F
0.394

Form field: reported activity coefficient of CCCCO [butan-1-ol] + CCCCCCCCCCCCn1cc[n+](C)c1.O=S(=O)([N-]S(=O)(=O)C(F)(F)F)C(F)(F)F
1.55

Form field: reported activity coefficient of c1ccncc1 [pyridine] + CCCCCCCCCCCCn1cc[n+](C)c1.O=S(=O)([N-]S(=O)(=O)C(F)(F)F)C(F)(F)F
0.387

Form field: reported activity coefficient of CCO [ethanol] + CCCCCCCCCCCCn1cc[n+](C)c1.O=S(=O)([N-]S(=O)(=O)C(F)(F)F)C(F)(F)F
1.38

Form field: reported activity coefficient of Cc1ccc(C)cc1 [1,4-dimethylbenzene] + CCCCCCCCCCCCn1cc[n+](C)c1.O=S(=O)([N-]S(=O)(=O)C(F)(F)F)C(F)(F)F
0.869
